Hello, the source for this data is patent US9216999B2, in case you need it.

Property: IC50; scope: individual molecules
- Tested system: JAK2 (Homo sapiens (Human), UniProt O60674)
- Run description: Enzyme assay (Assay Example^a 1), JAK2
- Format: biochemical
- Condition parameters: ATP 100 μM
Quantity name: IC50 (µM)

Molecule	Tested system	Observed measurement
c1cc2c(ncn3nnc([C@H]4CC[C@H](CNCC5CC5)CC4)c23)[nH]1	JAK2 (Homo sapiens (Human), UniProt O60674)	0.12
FC1CN(C[C@H]2CC[C@H](c3nnn4cnc5[nH]ccc5c34)CC2)C1	JAK2 (Homo sapiens (Human), UniProt O60674)	0.06
FC(F)(F)C(F)(F)CN[C@H]1CC[C@H](c2nnn3cnc4[nH]ccc4c23)CC1 [383b]	JAK2 (Homo sapiens (Human), UniProt O60674)	0.013
CCNC[C@H]1CC[C@H](c2nnn3cnc4[nH]ccc4c23)CC1	JAK2 (Homo sapiens (Human), UniProt O60674)	0.047
c1cc2c(ncn3nnc(C4CCN(Cc5cnc(N6CCOCC6)s5)CC4)c23)[nH]1	JAK2 (Homo sapiens (Human), UniProt O60674)	0.88
N#CCNC(=O)C[C@H]1CC[C@@H](c2nnn3cnc4[nH]ccc4c23)CC1 [443a]	JAK2 (Homo sapiens (Human), UniProt O60674)	0.06
NC(=O)[C@H]1CC[C@H](c2nnn3cnc4[nH]ccc4c23)CC1	JAK2 (Homo sapiens (Human), UniProt O60674)	0.051
O=S(=O)(C[C@H]1CC[C@H](c2nnn3cnc4[nH]ccc4c23)CC1)C1CC1	JAK2 (Homo sapiens (Human), UniProt O60674)	0.028
CC(C#N)[C@H]1CC[C@@H](c2nnn3cnc4[nH]ccc4c23)CC1 (some centres unmarked) [439a]	JAK2 (Homo sapiens (Human), UniProt O60674)	0.34
Clc1ccc(CN2CCC(c3nnn4cnc5[nH]ccc5c34)CC2)o1	JAK2 (Homo sapiens (Human), UniProt O60674)	0.0044
FC(F)(F)C(F)(F)CNC[C@H]1CC[C@H](c2nnn3cnc4[nH]ccc4c23)CC1	JAK2 (Homo sapiens (Human), UniProt O60674)	0.034
N#Cc1ccc(NC[C@H]2CC[C@H](c3nnn4cnc5[nH]ccc5c34)CC2)cc1Cl	JAK2 (Homo sapiens (Human), UniProt O60674)	0.09
OC12CC3CC(C1)C(NC[C@H]1CC[C@H](c4nnn5cnc6[nH]ccc6c45)CC1)C(C3)C2 (some centres unmarked) [compound 304]	JAK2 (Homo sapiens (Human), UniProt O60674)	0.27
Fc1ccc(C2(NC[C@H]3CC[C@H](c4nnn5cnc6[nH]ccc6c45)CC3)CC2)cc1	JAK2 (Homo sapiens (Human), UniProt O60674)	0.034
CC(C#N)[C@H]1CC[C@H](c2nnn3cnc4[nH]ccc4c23)CC1 (some centres unmarked) [439b]	JAK2 (Homo sapiens (Human), UniProt O60674)	0.0067
IC[C@H]1CC[C@H](c2nnn3cnc4[nH]ccc4c23)CC1	JAK2 (Homo sapiens (Human), UniProt O60674)	0.0043
CN(CCO)C[C@H]1CC[C@H](c2nnn3cnc4[nH]ccc4c23)CC1	JAK2 (Homo sapiens (Human), UniProt O60674)	0.1
